In what follows, each item is paired with its IC50 for UniProtKB P29476.

Worked cases, IC50 given:
1) CCSC(=N)Nc1ccc2[nH]ccc2c1; 29.6 µM
2) N=C(Nc1ccc2ccn(CCc3ccccc3)c2c1)c1cccs1; 14.6 µM
3) CN1CCCC1CCn1ccc2ccc(NC(=N)c3cccs3)cc21 (stereo not shown); 4.1 µM

// next item, IC50 requested
Exercise: Give IC50 for CN(C)CCc1c[nH]c2ccc(NC(=N)c3cccs3)cc12 tested on UniProtKB P29476.
Solution: 3.3 µM

###

Molecular target: human endothelial constitutive NOS (eNOS) (Homo sapiens (Human), UniProt P29474)
Assay: Human eNOS enzyme assay, radiometric
Conditions: read-out: eNOSh; Table I; human NOS; dihydrochloride or monohydrochloride salts
Reported Endpoint: pIC50
Here pIC50 is given on a logarithmic scale as minus log10 of the concentration in mol/L.

Solved cases (10 shown):
1) CN1CCC(c2c[nH]c3ccc(NC(=N)c4ccco4)cc23)C1 (stereo not drawn); 4.47
2) CN(C)CCc1c[nH]c2ccc(CNC(=N)c3cccs3)cc12; 4.06
3) N=C(Nc1ccc2[nH]cc(C3CN4CCC3CC4)c2c1)c1ccco1 (stereo not drawn); 4.18
4) CNC1CC=C(c2c[nH]c3ccc(NC(=N)c4cccs4)cc23)CC1 (stereo not drawn); 4.49
5) CCN1CCC(c2c[nH]c3ccc(NC(=N)c4cccs4)cc23)CC1; 4.24
6) N=C(Nc1ccc2[nH]cc(CCCN3CCOCC3)c2c1)c1cccs1; 4.51
7) CN1C2C=C(c3c[nH]c4ccc(NC(=N)c5cccs5)cc34)CC1CC2 (stereo not drawn); 4.17
8) CN1CCC(c2c[nH]c3ccc(NC(=N)c4cccs4)cc23)C1 (stereo not drawn); 4.41
9) N=C(Nc1ccc2[nH]cc(C3CCNCC3)c2c1)c1cccs1; 4.11
10) N=C(Nc1ccc2[nH]cc(-c3ccncc3)c2c1)c1cccs1; 4.36

Exercise: Give the measured pIC50 for CN(C)C1CC=C(c2c[nH]c3ccc(NC(=N)c4cccs4)cc23)CC1 (stereo not drawn)
Solution: 4.29

Exercise: # return recorded pIC50 for entry CSC(=N)Nc1ccc2[nH]cc(C3=CCN(C)CC3)c2c1
Solution: 4.44

Exercise: Hello, please tell me recorded pIC50 for this one: N=C(Nc1ccc2[nH]cc(C3CCN(C(=N)c4cccs4)CC3)c2c1)c1cccs1
Solution: 5.35

Exercise: State its pIC50 for this compound: CN(C)C1CCC(c2c[nH]c3ccc(NC(=N)c4cccs4)cc23)CC1 (stereo not drawn)
Solution: 4.50

Exercise: For the compound N=C(Nc1ccc2[nH]cc(C3CN4CCC3CC4)c2c1)c1cccs1 (stereo not drawn) , report pIC50.
Solution: 4.49

###

Here, each record is paired with measured pIC50 data.
Target: human neuronal constitutive NOS (nNOS) (Homo sapiens (Human))
Assay: Human nNOS enzyme assay, radiometric [3H]L-arginine to [3H]L-citrulline
Settings: read-out: nNOSh
Note: pIC50 values are expressed as the negative base-10 logarithm of concentration in M.

Exercise: Query pIC50 for CN(C)CCc1c[nH]c2ccc(CNC(=N)c3cccs3)cc12
Solution: 4.89

Exercise: Note pIC50 for the compound shown: N=C(Nc1ccc2ccn(CCc3ccccc3)c2c1)c1cccs1
Solution: 4.92

###

Molecular target: human neuronal constitutive NOS (nNOS) (Homo sapiens (Human), UniProt P29475)
Assay: Human nNOS enzyme assay, radiometric [3H]L-arginine to [3H]L-citrulline
Settings: Table II; ratio eNOSh/nNOSh
Sorting guide: entries reporting e/n beneath 40 go in the Yes pile, the rest go in the No pile.

Answered examples (5):
1) N=C(Nc1ccc2ccn(CCCN3CCOCC3)c2c1)c1ccsc1; Yes
2) CN1CCCC(n2ccc3ccc(NC(=N)c4cccs4)cc32)CC1 (stereo not drawn); No
3) N=C(Nc1ccc2ccn(CCN3CCCCC3)c2c1)c1cccs1; Yes
4) CN1CCC[C@H]1CCn1ccc2ccc(NC(=N)c3cccs3)cc21; No
5) CN1CCCC1CCn1c(Cc2ccccc2)cc2ccc(NC(=N)c3cccs3)cc21 (stereo not drawn); Yes

Exercise: A record lists CN1CCC[C@@H]1CCn1ccc2ccc(NC(=N)c3cccs3)cc21 . Is its e/n below 40?
Solution: No

Exercise: Below 40 on e/n? Entry N=C(Nc1ccc2ccn(CCCCn3ccnc3)c2c1)c1cccs1 [Compound 167]
Solution: Yes

Exercise: Criterion: e/n strictly below 40. Is it met by N=C(Nc1ccc2ccn(CCCN3CCOCC3)c2c1)c1ccoc1 ?
Solution: Yes

###

Target: human endothelial constitutive NOS (eNOS) (Homo sapiens (Human))
Assay: Human eNOS enzyme assay, radiometric
Conditions: read-out: eNOSh
pIC50: −log10 of the molar value.
Reported Endpoint: pIC50

Exercise: # return recorded pIC50 for input N=C(Nc1ccc2ccn(CCc3ccccc3)c2c1)c1cccs1
Solution: < 4.00

###

Each item that follows carries a reported log10(IC50).
Biological target: human inducible NOS (iNOS) (Homo sapiens (Human), UniProt P35228)
Assay: Human iNOS enzyme assay, radiometric
Format: biochemical
Details: Table I; human NOS; dihydrochloride or monohydrochloride salts; read-out: iNOSh
Reminder: these figures are log10 of reported IC50, in µM before transformation.

1. CN(C)CCCc1c[nH]c2ccc(NC(=N)c3cccs3)cc12; 0.75
2. CN1CCC(c2c[nH]c3ccc(NC(=N)c4cccs4)cc23)CC1; 1.76
3. N=C(Nc1ccc2[nH]cc(CCCN3CCOCC3)c2c1)c1cccs1; 1.00
4. CN1CC=C(c2c[nH]c3ccc(NC(=N)c4cccs4)cc23)CC1; 1.30
5. CN1CC=C(c2c[nH]c3ccc(CNC(=N)c4cccs4)cc23)CC1; 1.93

Exercise: Fill in log10(IC50) for record CN1CCC(c2c[nH]c3ccc(NC(=N)c4ccco4)cc23)CC1
Solution: 1.74

Exercise: Identify log10(IC50) associated with the compound CN1CC=C(c2c[nH]c3ccc(NC(=N)c4ccco4)cc23)CC1
Solution: 1.76

Exercise: Give the reported value of log10(IC50) for this record: CN(C)CCc1c[nH]c2ccc(NC(=N)c3cccs3)cc12
Solution: 1.08

###

Target: bovine eNOS (Bos taurus (Bovine), UniProt P29473)
Assay: Bovine eNOS hemoglobin capture assay
Assay type: biochemical
Conditions: Table 2a; hemoglobin capture assay; read-out: Bovine eNOS
Reported Endpoint: pIC50
Scale: negative log10 of molar concentration, which is what pIC50 denotes.

Please review the following examples before continuing.
1) CN1CCCC1CCn1ccc2ccc(NC(=N)c3cccs3)cc21 (stereo not shown); 5.21
2) N=C(Nc1ccc2[nH]ccc2c1)c1cccs1; 3.19

Now, please, on to the next compound.
Exercise: Tell me its pIC50 given CCSC(=N)Nc1ccc2[nH]ccc2c1 as the entry.
Solution: 3.79

###

Molecular target: human endothelial constitutive NOS (eNOS) (Homo sapiens (Human), UniProt P29474)
Assay: Human eNOS enzyme assay, radiometric;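 note: recombinant human eNOS expressed in baculovirus-infected Sf9 cells, activity read as [3H]L-arginine turned into [3H]L-citrulline, the product isolated on ion-exchange resin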
Details: read-out: eNOSh; Table II; human NOS; dihydrochloride or monohydrochloride salts
pIC50: −log10 of the molar value.
Threshold check on pIC50: at or above 5 gives satisfied, strictly below gives not satisfied.

1) CN1CCC[C@@H]1CCn1ccc2ccc(NC(=N)c3cccs3)cc21; not satisfied

Exercise: Hello, I need to know if CN(C)CCCn1ccc2ccc(NC(=N)c3cccs3)cc21 [Compound 160] has measured pIC50 not below 5. Thanks!
Solution: satisfied

Exercise: Is reported pIC50 greater than or equal to 5 here: N=C(Nc1ccc2ccn(CCN3CCCCC3)c2c1)c1cccs1
Solution: satisfied

Exercise: Assess whether reported pIC50 for N=C(Nc1ccc2ccn(CCCN3CCOCC3)c2c1)c1ccsc1 sits at 5 or higher.
Solution: not satisfied

###

# pIC50 per entry
Target: human inducible NOS (iNOS) (Homo sapiens (Human))
Assay: Human iNOS enzyme assay, radiometric
Assay type: biochemical
Conditions: Table 2b; read-out: Human iNOS
# pIC50: negative log10 of molar concentration; output just the value

Look over these answered cases.
1) CN1CCCC1CCn1ccc2ccc(NC(=N)c3cccs3)cc21 (stereo not drawn) [32(+)]; 4.14
2) CN1CCCC1CCn1ccc2ccc(NC(=N)c3cccs3)cc21 (stereo not drawn) [32(−)]; 4.14
3) N=C(Nc1ccc2ccn(CCc3ccccc3)c2c1)c1cccs1; 3.49
4) N=C(Nc1ccc2ccn(CCN3CCCCC3)c2c1)c1cccs1; 4.68

Below: the item to evaluate.
Exercise: Give the value of pIC50 reported for the following: CN(C)CCc1c[nH]c2ccc(NC(=N)c3cccs3)cc12
Solution: 4.92

###

Molecular target: human neuronal constitutive NOS (nNOS) (Homo sapiens (Human), UniProt P29475)
Test: Human nNOS enzyme assay, radiometric [3H]L-arginine to [3H]L-citrulline;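 note: recombinant human nNOS expressed in baculovirus-infected Sf9 cells, enzyme activity measured radiometrically as turnover of [3H]L-arginine into [3H]L-citrulline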
Conditions: read-out: nNOSh; Table II; human NOS; dihydrochloride or monohydrochloride salts
Catalogue of IC50 readings, one per entry.
Field format: number, assumed nM, no unit text.

Observe how each entry below is paired with its result.
1) N=C(Nc1ccc2ccn(CCCN3CCOCC3)c2c1)c1ccsc1; 1400
2) CN1CCCC(n2ccc3ccc(NC(=N)c4cccs4)cc32)CC1 (stereo not drawn); 870

Kindly consider the entry below.
Exercise: // output IC50; input N=C(Nc1ccc2ccn(CCCCn3ccnc3)c2c1)c1cccs1 [Compound 167] ; system human neuronal constitutive NOS (nNOS) (Homo sapiens (Human), UniProt P29475)
Solution: 1220
